MEASUREMENT NOTES: Cytotoxicity against mouse BA/F3 cells transfected with FLT3-ITD after 24 hrs by plate reader analysis in presence of IL3
CONDITIONS USED: BaF3, 24 h
Below, each entry is listed alongside its reported EC50.
All answers are understood in µM, so give the number only.

Reference set, count: 3
• Cc1cccc(C(=O)Nc2cc(-c3ccc(F)cc3)n[nH]2)c1 = 21
• Fc1ccc(-c2n[nH]cc2-c2ccncc2)cc1Cl = 16
• COc1ccc(C(=O)Nc2cc(-c3ccccc3)[nH]n2)cc1 = 18

Give the reported EC50 for this compound. Cc1ccc(-n2cnc3cc(Nc4nnc(C)c5ccccc45)ccc32)cc1
19

Give the reported EC50 for this compound. Cc1ccc(-c2cc(NC(=O)c3ccc(F)cc3)[nH]n2)cc1
23

Numbers sourced from ChEMBL document CHEMBL2390926.
